- testName: Plasma stability assay via LC-MS/MS, mouse plasma
- Assay type: in vitro ADME
- conditionSummary: read-out: t1/2 in mouse plasma (Table S20) (converted)
Below, each entry is listed with its recorded half-life at 3 µM.
quantityMeasured: half-life at 3 µM (h)

CNCCN(C(=O)O/N=C(\C)[C@H]1CC[C@H]2[C@@H]3CCC4=CC(=O)CC[C@]4(C)[C@H]3CC[C@]12C)C1CC1.O=C(O)C(F)(F)F [20b]	5.4
C/C(=N\OC(=O)N(C)C[C@@H]1CCCN1)[C@H]1CC[C@H]2[C@@H]3CCC4=CC(=O)CC[C@]4(C)[C@H]3CC[C@]12C.O=C(O)C(F)(F)F [20l]	0.4
CNCCN(C)C(=O)O/N=C(\C)[C@H]1CC[C@H]2[C@@H]3CCC4=CC(=O)CC[C@]4(C)[C@H]3CC[C@]12C [20a]	4.7
CNC1(CN(C)C(=O)O/N=C(\C)[C@H]2CC[C@H]3[C@@H]4CCC5=CC(=O)CC[C@]5(C)[C@H]4CC[C@]23C)CCC1 [20t]	0.34

====

Below, each entry is listed with its recorded Plasma, 37 °C %rem. at 2h (Table S23).
- testName: Plasma stability assay at 37 °C via LC-MS/MS, human plasma;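 also: prodrugs at 3 µM incubated in human plasma at 37 °C, intact prodrug quantified by LC-MS/MS over time, values are means of duplicate runs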
- Type: in vitro ADME
- conditionSummary: 2 h
quantityMeasured: Plasma, 37 °C %rem. at 2h (Table S23) (%)

CNCCN(CCCN1CCOCC1)C(=O)O/N=C(\C)[C@H]1CC[C@H]2[C@@H]3CCC4=CC(=O)CC[C@]4(C)[C@H]3CC[C@]12C.O=C(O)C(F)(F)F [20i]	57
C/C(=N\OC(=O)N(C)C[C@@H]1CCN1)[C@H]1CC[C@H]2[C@@H]3CCC4=CC(=O)CC[C@]4(C)[C@H]3CC[C@]12C [20o]	1
CNCCN(C(=O)O/N=C(\C)[C@H]1CC[C@H]2[C@@H]3CCC4=CC(=O)CC[C@]4(C)[C@H]3CC[C@]12C)C(C)C.O=C(O)C(F)(F)F [20c]	47
C/C(=N\OC(=O)N(CCO)CCNCCO)[C@H]1CC[C@H]2[C@@H]3CCC4=CC(=O)CC[C@]4(C)[C@H]3CC[C@]12C.Cl [20z]	71
C/C(=N\OC(=O)N(C)C[C@H]1CCCN1)[C@H]1CC[C@H]2[C@@H]3CCC4=CC(=O)CC[C@]4(C)[C@H]3CC[C@]12C.O=C(O)C(F)(F)F [20m]	2
CNCCN(C(=O)O/N=C(\C)[C@H]1CC[C@H]2[C@@H]3CCC4C[C@H](O)CC[C@]4(C)[C@H]3CC[C@]12C)C(C)C.O=C(O)C(F)(F)F (stereo partly drawn) [21c]	16

====

Below, each entry is listed with its recorded log10 of half-life at 1 mg/mL.
- testName: Stability in PBS at room temperature via HPLC (UV)
- Type: physicochemical
- conditionSummary: phosphate-buffered saline (DPBS), pH 7.03, DPBS pH 7.03, RT, 1 mg/mL, HPLC 254 nm; read-out: t1/2 in PBS buffer at RT (Tables S1-S4) (converted)
quantityMeasured: log10 of half-life at 1 mg/mL (log10 of the value in h)

CNCCN(CCNC)C(=O)O/N=C(\C)[C@H]1CC[C@H]2[C@@H]3CCC4=CC(=O)CC[C@]4(C)[C@H]3CC[C@]12C.Cl.Cl [20x]	0.18
CNCCN(C(=O)O/N=C(\C)[C@H]1CC[C@H]2[C@@H]3CCC4=CC(=O)CC[C@]4(C)[C@H]3CC[C@]12C)C1CC1.O=C(O)C(F)(F)F [20b]	1.45
CNCCN(C(=O)O/N=C(\C)[C@H]1CC[C@H]2[C@@H]3CCC4=CC(=O)CC[C@]4(C)[C@H]3CC[C@]12C)C1CCCC1.O=C(O)C(F)(F)F [20e]	1.03
CNCCN(CCN1CCOCC1)C(=O)O/N=C(\C)[C@H]1CC[C@H]2[C@@H]3CCC4=CC(=O)CC[C@]4(C)[C@H]3CC[C@]12C.O=C(O)C(F)(F)F [20j]	1.34
CNC1(CN(C)C(=O)O/N=C(\C)[C@H]2CC[C@H]3[C@@H]4CCC5=CC(=O)CC[C@]5(C)[C@H]4CC[C@]23C)CCC1 [20t]	1.02
CNCCN(C(=O)O/N=C(\C)[C@H]1CC[C@H]2[C@@H]3CCC4=CC(=O)CC[C@]4(C)[C@H]3CC[C@]12C)C(C)C.O=C(O)C(F)(F)F [20c]	1.29
CNCCN(CCCN1CCOCC1)C(=O)O/N=C(\C)[C@H]1CC[C@H]2[C@@H]3CCC4=CC(=O)CC[C@]4(C)[C@H]3CC[C@]12C.O=C(O)C(F)(F)F [20i]	1.49
CNCCN(CCN1CCCC1)C(=O)O/N=C(\C)[C@H]1CC[C@H]2[C@@H]3CCC4=CC(=O)CC[C@]4(C)[C@H]3CC[C@]12C.O=C(O)C(F)(F)F [20h]	0.86
CNCCN(C)C(=O)O/N=C(\C)[C@H]1CC[C@H]2[C@@H]3CCC4=CC(=O)CC[C@]4(C)[C@H]3CC[C@]12C [20a]	1.67
CNCCN(CC(C)C)C(=O)O/N=C(\C)[C@H]1CC[C@H]2[C@@H]3CCC4=CC(=O)CC[C@]4(C)[C@H]3CC[C@]12C.O=C(O)C(F)(F)F [20f]	1.71
C/C(=N\OC(=O)N(C)C[C@@H]1CCN1)[C@H]1CC[C@H]2[C@@H]3CCC4=CC(=O)CC[C@]4(C)[C@H]3CC[C@]12C [20o]	0.80
CNCCN(CCn1ccnc1)C(=O)O/N=C(\C)[C@H]1CC[C@H]2[C@@H]3CCC4=CC(=O)CC[C@]4(C)[C@H]3CC[C@]12C [20k]	1.67

====

- testName: PBS stability assay at 37 °C via LC-MS/MS
- Type: physicochemical
- conditionSummary: phosphate-buffered saline (DPBS), pH 7.03, PBS, 37 °C, 3 µM, LC-MS/MS; read-out: t1/2 in PBS at 37 °C (Tables S14-S17) (converted)
quantityMeasured: half-life at 3 µM (h)

C/C(=N\OC(=O)N(C)C[C@@H]1CCCN1)[C@H]1CC[C@H]2[C@@H]3CCC4=CC(=O)CC[C@]4(C)[C@H]3CC[C@]12C.O=C(O)C(F)(F)F [20l]	0.74
CNC1(CN(C)C(=O)O/N=C(\C)[C@H]2CC[C@H]3[C@@H]4CCC5=CC(=O)CC[C@]5(C)[C@H]4CC[C@]23C)CC1 [20s]	18.5
C/C(=N\OC(=O)N(C)C[C@@H]1CC(F)(F)CN1)[C@H]1CC[C@H]2[C@@H]3CCC4=CC(=O)CC[C@]4(C)[C@H]3CC[C@]12C [20r]	4.93
CNCCN(C)C(=O)O/N=C(\C)[C@H]1CC[C@H]2[C@@H]3CCC4=CC(=O)CC[C@]4(C)[C@H]3CC[C@]12C [20a]	8.07
C/C(=N\OC(=O)N(C)C[C@H]1CCCN1)[C@H]1CC[C@H]2[C@@H]3CCC4=CC(=O)CC[C@]4(C)[C@H]3CC[C@]12C.O=C(O)C(F)(F)F [20m]	0.8
C/C(=N\OC(=O)N(C)CC[C@@H]1CCCN1)[C@H]1CC[C@H]2[C@@H]3CCC4=CC(=O)CC[C@]4(C)[C@H]3CC[C@]12C.O=C(O)C(F)(F)F [20n]	26.5
C/C(=N\OC(=O)N(C)[C@H](C)[C@@H]1CCCN1)[C@H]1CC[C@H]2[C@@H]3CCC4=CC(=O)CC[C@]4(C)[C@H]3CC[C@]12C.O=C(O)C(F)(F)F [20p]	0.61
CNCCN(CCn1ccnc1)C(=O)O/N=C(\C)[C@H]1CC[C@H]2[C@@H]3CCC4=CC(=O)CC[C@]4(C)[C@H]3CC[C@]12C [20k]	5.99
CNCCN(CC(C)C)C(=O)O/N=C(\C)[C@H]1CC[C@H]2[C@@H]3CCC4=CC(=O)CC[C@]4(C)[C@H]3CC[C@]12C.O=C(O)C(F)(F)F [20f]	5.07
C/C(=N\OC(=O)N(CCN(C)C)CCN(C)C)[C@H]1CC[C@H]2[C@@H]3CCC4=CC(=O)CC[C@]4(C)[C@H]3CC[C@]12C [20y]	1.87
CNC1(CN(C)C(=O)O/N=C(\C)[C@H]2CC[C@H]3[C@@H]4CCC5=CC(=O)CC[C@]5(C)[C@H]4CC[C@]23C)CCC1 [20t]	0.94
CNCCN(C(=O)O/N=C(\C)[C@H]1CC[C@H]2[C@@H]3CCC4=CC(=O)CC[C@]4(C)[C@H]3CC[C@]12C)C(C)C.O=C(O)C(F)(F)F [20c]	3.27
CNCCN(C(=O)O/N=C(\C)[C@H]1CC[C@H]2[C@@H]3CCC4=CC(=O)CC[C@]4(C)[C@H]3CC[C@]12C)C1CCCC1.O=C(O)C(F)(F)F [20e]	1.74
C/C(=N\OC(=O)N(C)C[C@@H]1CCN1)[C@H]1CC[C@H]2[C@@H]3CCC4=CC(=O)CC[C@]4(C)[C@H]3CC[C@]12C [20o]	0.9
